# TESTED_TARGET: Arginase-2, mitochondrial (Homo sapiens) (UniProt P78540)
# Sequence (P78540 whole entry): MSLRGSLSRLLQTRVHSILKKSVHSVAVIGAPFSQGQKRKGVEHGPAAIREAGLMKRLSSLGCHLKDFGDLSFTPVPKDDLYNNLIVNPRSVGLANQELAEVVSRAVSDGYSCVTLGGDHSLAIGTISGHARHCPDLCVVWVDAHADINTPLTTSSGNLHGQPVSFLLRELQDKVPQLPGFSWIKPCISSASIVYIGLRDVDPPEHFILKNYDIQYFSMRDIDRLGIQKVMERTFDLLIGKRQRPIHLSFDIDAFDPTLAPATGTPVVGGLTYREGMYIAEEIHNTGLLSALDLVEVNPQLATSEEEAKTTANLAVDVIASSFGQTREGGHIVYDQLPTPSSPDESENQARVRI
# PROTOCOL_NOTES: in vitro enzyme assay to detect the production of urea directly proportional to the activity of Arginase II; further: in the data most compounds retested in dose-response had high values
# Type: functional
# Design: scale not given: direction of the effect not stated beside the values
# EXPERIMENTAL_CONDITIONS: 33.3 µM
OUTCOME_MEASURE: Percent Effect (%)
Output spec: scalar in %, unitless text.

Worked examples, 2 molecules total:
| MOLECULE | Percent Effect, % |
| --- | --- |
| CC(C)c1cc(NCC(O)CO)n2nccc2n1 (centres undefined) | 11.9 |
| Cc1nc(COc2cccc(C#N)c2)no1 | -0.36 |

Give Percent Effect for this entry on Arginase-2, mitochondrial (Homo sapiens) (UniProt P78540): CC(NC(=O)NCC1(c2ccc(F)cc2)CCC1)c1nncn1C (centres undefined)
0

Write down measured Percent Effect (Arginase-2, mitochondrial (Homo sapiens) (UniProt P78540)) for this molecule. CCOc1ccc(-c2ccnc(CC)n2)cc1C(=O)O
-0.476

Give reported Percent Effect for COc1cccc(CN2C[C@@H]3COC[C@]3(COCc3ccncc3)C2)c1 (Arginase-2, mitochondrial (Homo sapiens) (UniProt P78540))
-4.14

----------
# TESTED_TARGET: Proteasome subunit beta (Trypanosoma cruzi)
# Sequence (whole entry): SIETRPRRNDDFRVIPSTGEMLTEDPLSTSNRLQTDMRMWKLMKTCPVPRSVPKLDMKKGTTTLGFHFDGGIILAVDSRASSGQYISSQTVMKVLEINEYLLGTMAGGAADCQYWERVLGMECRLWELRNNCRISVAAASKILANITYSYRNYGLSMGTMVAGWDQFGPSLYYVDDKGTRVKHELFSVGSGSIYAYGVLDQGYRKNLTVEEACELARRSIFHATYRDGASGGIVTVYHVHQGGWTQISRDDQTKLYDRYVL
# PROTOCOL_NOTES: Trypanosoma cruzi proteasome chymotrypsin-like activity (TcProtChymo) assay. Further: in the data most compounds retested in dose-response had high values.
# Format: functional
# Design: scale not given: direction of the effect not stated beside the values
# EXPERIMENTAL_CONDITIONS: 9.37 µM
Each record here notes measured Percent Effect.
The answer is to be given in %; state only the numeric part.

Study these solved cases before continuing.
| COMPOUND | OUTCOME_MEASURE | RESULT |
| --- | --- | --- |
| O=C(NCCCn1cccn1)C1(c2ccc(Br)cc2)CC1 | Percent Effect | 10.1 |
| Cc1nc(C)n(CC2CCCN(c3ncnc4sccc34)C2)n1 (configuration not stated) | Percent Effect | 9.91 |
| CCN(Cc1nc2c(cnn2C)c(=O)[nH]1)c1ccc(OC)c(OC)c1 | Percent Effect | 23.3 |
| FC(F)(F)C1CCc2nnc(CNCc3ccsc3)n2C1 (configuration not stated) | Percent Effect | 10.4 |
| Cc1cn2c(n1)CCC(NC(=O)c1cc(C(C)C)no1)C2 (configuration not stated) | Percent Effect | 4.93 |

Note down Percent Effect recorded for COCCN1C[C@@H]2CCCO[C@@H]2[C@H](N(C)Cc2ccco2)C1
11

Return Percent Effect (reported value) for this compound: Cc1cccc(CNC(CN2CCN(C)CC2)c2ccccc2)c1 (configuration not stated)
7.3

// Input: O=C(c1cccn1Cc1cccs1)N1CCN(C2CC2)CC1 . Output its Percent Effect only.
11.3

Name the recorded Percent Effect of the compound listed here: Cn1cc(CN2CCCC3(CCN(c4nncs4)C3)C2)cn1 (configuration not stated)
1.97

Please report the measured Percent Effect for CCCn1ncc(CN2C[C@@H]3CCCN3C[C@@H]2CCSC)c1C
19.5

Retrieve Percent Effect measured for Cc1c(C2CCCN(C(=O)C3CC3)C2)n2c(nc1=O)CCC2 (configuration not stated) and print it.
15.4

For the compound CCCc1nnsc1C(=O)NCC1CCN(S(C)(=O)=O)CC1 , report Percent Effect.
20.1

Please report the measured Percent Effect for Cc1nc(C)c2c(n1)CCN(C(=O)CC1CC1)CC2
21.2

Provide Percent Effect value for the following compound: CCNC(=O)c1nc2c(s1)CCCN2S(C)(=O)=O
5.81

Using known records, supply Percent Effect for CC(C#N)CSc1ccccc1NCC(=O)NCc1ccccc1 (configuration not stated)
11.7

Please give the documented Percent Effect of Cc1cnn(CC2CN(Cc3cccc(OCC(N)=O)c3)CCO2)c1 (configuration not stated)
-2.53

Check the records and state Percent Effect for CC(NC(=O)NCCN1CCCCCC1=O)c1nncn1C (configuration not stated)
-2.69

Identify the reported Percent Effect for the following entry. Cc1cc(C)cc(OCCC(=O)N2CCOCC2c2ncon2)c1 (configuration not stated)
-1.62

Dear colleague, please send me the reported Percent Effect for CN(Cc1cccc(O)c1)CC1CCCN(CCc2ccc(Cl)cc2)C1 (configuration not stated) when you can.
-2.32

Given the compound Cc1cc2n(n1)CC(CNCc1ccnc(-n3ccnc3C)c1)CN2 (configuration not stated) , write its reported Percent Effect.
22.9

For the compound Cc1nc(CN2C(=O)COC3(CCN(Cc4nccs4)CC3)C2C)cs1 (configuration not stated) , give its reported Percent Effect.
2.48

Given the compound Cc1ccc(C#N)c(N2CCC(c3nccn3Cc3cscn3)CC2)n1 , write its reported Percent Effect.
13.2

----------
# Lookup of reported Percent Effect keyed by entry
# TESTED_TARGET: Ubiquitin-activating enzyme e1, putative (Leishmania donovani (strain BPK282A1)) (UniProt E9BSI1)
# Sequence (E9BSI1 as listed by the source): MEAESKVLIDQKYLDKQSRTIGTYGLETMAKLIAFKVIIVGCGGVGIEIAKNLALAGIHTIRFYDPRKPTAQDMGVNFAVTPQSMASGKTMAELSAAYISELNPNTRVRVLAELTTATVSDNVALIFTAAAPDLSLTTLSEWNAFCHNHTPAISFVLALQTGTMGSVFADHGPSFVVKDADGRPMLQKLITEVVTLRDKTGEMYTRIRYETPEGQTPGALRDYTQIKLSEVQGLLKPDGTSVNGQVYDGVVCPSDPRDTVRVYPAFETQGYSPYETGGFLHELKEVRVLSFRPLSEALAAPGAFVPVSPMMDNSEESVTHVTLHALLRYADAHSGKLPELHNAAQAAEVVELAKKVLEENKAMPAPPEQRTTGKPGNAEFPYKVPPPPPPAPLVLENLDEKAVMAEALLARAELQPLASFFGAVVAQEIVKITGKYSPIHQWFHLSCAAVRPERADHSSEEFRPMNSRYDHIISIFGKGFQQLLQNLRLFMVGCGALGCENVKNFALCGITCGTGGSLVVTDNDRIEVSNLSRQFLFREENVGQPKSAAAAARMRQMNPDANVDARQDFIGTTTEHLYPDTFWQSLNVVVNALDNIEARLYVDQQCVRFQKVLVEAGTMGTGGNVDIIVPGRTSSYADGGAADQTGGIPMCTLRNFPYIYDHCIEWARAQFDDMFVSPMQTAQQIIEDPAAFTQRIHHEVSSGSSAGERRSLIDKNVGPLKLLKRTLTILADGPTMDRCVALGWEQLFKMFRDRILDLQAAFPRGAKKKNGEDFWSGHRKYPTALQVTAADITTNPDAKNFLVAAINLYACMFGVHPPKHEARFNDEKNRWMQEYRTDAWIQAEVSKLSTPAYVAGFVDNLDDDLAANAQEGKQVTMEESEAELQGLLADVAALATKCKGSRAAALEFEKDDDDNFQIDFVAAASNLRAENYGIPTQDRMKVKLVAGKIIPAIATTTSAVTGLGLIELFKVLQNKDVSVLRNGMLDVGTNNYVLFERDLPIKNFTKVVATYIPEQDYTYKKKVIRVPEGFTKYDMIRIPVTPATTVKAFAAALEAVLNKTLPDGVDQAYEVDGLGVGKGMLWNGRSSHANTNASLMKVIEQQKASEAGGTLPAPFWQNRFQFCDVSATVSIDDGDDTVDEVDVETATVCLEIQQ
# PROTOCOL_NOTES: Leishmania donovani Ubiquitin Activating Enzyme (LdE1)
# Type: functional
# Set-up: scale not given: direction of the effect not stated beside the values
# EXPERIMENTAL_CONDITIONS: 30 µM
Entries with a potency or affinity are not part of this list.
Only the number, expressed in %, is required.

| COMPOUND | UNIT_OF_MEASUREMENT | Percent Effect |
| --- | --- | --- |
| Cc1ccc(C(=O)N2CCN(Cc3nc(C(C)C)no3)CC2)c(=O)[nH]1 | % | 2.7 |
| Cc1cn2c(n1)CCC(NC(=O)CCC(F)(F)F)C2 (configuration not stated) | % | -7.89 |
| O=C(NCC1CC1)C1CN(C(=O)c2cccc(Cl)c2)CC12CCOCC2 (configuration not stated) | % | 10.4 |
| CN(C)C(=O)CO[C@@H]1CC[C@H]2[C@H]1OCCN2C(=O)C1CCOCC1 | % | 2.7 |
| CC(=O)NCC1CCN(CC2CCOc3ccccc3C2)CC1 (configuration not stated) | % | 15.3 |

Quote Percent Effect reported for O=C(c1ccncc1)N1CCC(c2nc(O)cc(-c3ccncc3)n2)C1 (configuration not stated) please.
21.3

Provide only the value of recorded Percent Effect for CC(=O)NCC(=O)N1C[C@H](OCc2cccnc2)[C@H]2COC[C@H]21
2.7

Report Percent Effect, nothing else, for this compound: Cc1noc(C2CCC3(CCN(C(=O)c4c(C)noc4C)CC3)O2)n1 (configuration not stated)
2.7

Report Percent Effect, nothing else, for this compound: CC(C)CN1CCCn2nc(CNC(=O)CCCc3cn[nH]c3)cc2C1
2.67

Item O=C(c1cccn1Cc1cccs1)N1CCCC1Cn1cccn1 (configuration not stated) : provide Percent Effect
-23.7

Give reported Percent Effect value for CN1CCN(C(=O)c2cnc3c(cnn3C3CCCC3)c2)CC1
12.7

Retrieve Percent Effect measured for CC(=O)Nc1nc(C2CCN(CC(N)=O)CC2)cs1 and print it.
-6.76

Could you please provide reported Percent Effect for CCC(=O)N1CCC(c2nnc(Cn3cccn3)n2C2CC2)CC1 ? Thanks!
18.1

Supply reported Percent Effect belonging to this compound: CNS(=O)(=O)c1cccc(C(C)NCc2cccc(OC)c2)c1 (configuration not stated)
-5.41

Consider the compound O=C(C1CC=CC1)N1CCc2c(COCc3ccncc3)cncc2C1 and give its recorded Percent Effect.
5.48

Return reported Percent Effect. Input compound: CCC1=N[C@@]2(CC[C@@H]3CN(CC(=O)N(C)C)C[C@@H]32)C(=O)N1CC1CC1
6.67

For the compound CCc1noc(C(C)N2CCN(c3ccc(C#N)cn3)CC2)n1 (configuration not stated) , report Percent Effect.
10.5

Please give measured Percent Effect of the following entry: Cc1nc(C2CCCN2Cc2nc(C)c(C)o2)no1 (configuration not stated)
16.2

Return the recorded Percent Effect value; entry: Clc1cc(CN2CCCC2Cn2cncn2)c2ncccc2c1 (configuration not stated)
2.7

Give the measured Percent Effect for Cc1cn2c(n1)CCC(NC(=O)c1ccc(CS(C)(=O)=O)cc1)C2 (configuration not stated)
13.2

Read off the recorded Percent Effect for O=C(NCC1CC1)[C@H]1C[C@@H]2CN(S(=O)(=O)Cc3ccccc3)C[C@H]1O2
10.7

Answer with reported Percent Effect of O=C(c1cccc(CNCC2CNc3ccnn3C2)c1)N1CCCC1 (configuration not stated)
8.86

Complete the entry with Percent Effect for NC(=O)COc1cccc(C(=O)Nc2cnc3n2CCCC3)c1
6.94

Using known records, supply Percent Effect for Cc1ccccc1CNC(=O)Cc1c(C)nc2cc(=O)[nH]n2c1C
13.2

// Input: COCCCN1CCC(NC(=O)C(C)C)CC1 . Output its Percent Effect only.
-2.74
